Target chain: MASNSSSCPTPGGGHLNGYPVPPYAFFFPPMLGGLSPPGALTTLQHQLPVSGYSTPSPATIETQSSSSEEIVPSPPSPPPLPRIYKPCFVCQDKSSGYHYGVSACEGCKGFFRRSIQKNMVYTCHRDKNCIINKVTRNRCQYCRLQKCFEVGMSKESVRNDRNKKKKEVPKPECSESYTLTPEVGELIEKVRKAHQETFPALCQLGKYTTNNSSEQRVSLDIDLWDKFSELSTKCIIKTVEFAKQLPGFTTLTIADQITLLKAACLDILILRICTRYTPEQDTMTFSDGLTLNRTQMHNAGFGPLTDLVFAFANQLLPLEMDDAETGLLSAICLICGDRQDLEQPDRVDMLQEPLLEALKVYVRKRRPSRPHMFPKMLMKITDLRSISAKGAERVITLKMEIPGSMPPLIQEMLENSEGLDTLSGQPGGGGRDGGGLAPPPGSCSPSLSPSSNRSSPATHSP
measurement_kind: pKd
One number for each entry, as −log10 of the molar value.

Sample records with pKd:
# mol_smiles, observed_value
data = [
    ("CC(C)(C)c1ccc(C#Cc2ccc(C(=O)O)c(F)c2)cc1Oc1ccc([N+](=O)[O-])cc1", 7.62),
    ("CC(C)(C)c1ccc(C#Cc2ccc(C(=O)O)cc2)cc1Oc1ccc(C(F)(F)F)cc1", 7.05),
    ("CC(C)(C)c1ccc(/C=C/c2ccc(C(=O)O)cc2)cc1Oc1ccc(C(F)(F)F)cc1", 7.77),
]

Now take the following compound into account.
Request: What value of pKd has been recorded for this entry: CC(C)(C)c1ccc(C#Cc2ccc(C(=O)O)cn2)cc1Oc1ccc(C(F)(F)F)cc1
Result: 5.98

---

Biological target: RARγ (Homo sapiens, UniProt P13631)
Sequence (P13631 whole entry, species assumed): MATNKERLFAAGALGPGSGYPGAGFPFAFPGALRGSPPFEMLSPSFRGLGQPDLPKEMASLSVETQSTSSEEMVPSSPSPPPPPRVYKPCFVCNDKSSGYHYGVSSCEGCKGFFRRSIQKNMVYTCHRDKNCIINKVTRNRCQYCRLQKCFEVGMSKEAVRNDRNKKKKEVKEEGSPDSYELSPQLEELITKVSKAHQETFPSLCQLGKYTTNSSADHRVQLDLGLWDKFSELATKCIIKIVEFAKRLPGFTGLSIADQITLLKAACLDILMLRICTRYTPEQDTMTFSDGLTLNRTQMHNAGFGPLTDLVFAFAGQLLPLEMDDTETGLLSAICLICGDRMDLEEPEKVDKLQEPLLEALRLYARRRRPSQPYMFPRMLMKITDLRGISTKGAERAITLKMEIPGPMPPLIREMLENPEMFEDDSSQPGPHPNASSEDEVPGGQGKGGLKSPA
Mark criterion met for Kd under 20 nM, criterion not met if at or over.

Here are 3 compounds together with their reported answers.
# mol_smiles, qualitative_label
records = [
    ("CC(C)(C)c1ccc(C#Cc2ccc(C(=O)O)c(F)c2)cc1Oc1ccc(C(F)(F)F)cc1", "criterion not met"),
    ("CC(C)(C)c1ccc(C#Cc2ccc(C(=O)O)c(F)c2)cc1Oc1ccc(N=[N+]=[N-])cc1", "criterion met"),
    ("Cc1ccc(Oc2cc(C#Cc3ccc(C(=O)O)c(F)c3)ccc2C(C)(C)C)cc1", "criterion met"),
]

Okay, next one:
Request: Please state whether Kd is below 20 nM for CC(C)(C)c1ccc(C#Cc2ccc(C(=O)O)cc2)cc1Oc1ccc(C(F)(F)F)cc1
Result: criterion not met

---

Target: RARγ (Homo sapiens, UniProt P13631, E108G/G109S/G112V)
Construct: expressed in transfected cells; host or cells: CV-1 cells
Sequence (P13631 whole entry E108G/G109S/G112V): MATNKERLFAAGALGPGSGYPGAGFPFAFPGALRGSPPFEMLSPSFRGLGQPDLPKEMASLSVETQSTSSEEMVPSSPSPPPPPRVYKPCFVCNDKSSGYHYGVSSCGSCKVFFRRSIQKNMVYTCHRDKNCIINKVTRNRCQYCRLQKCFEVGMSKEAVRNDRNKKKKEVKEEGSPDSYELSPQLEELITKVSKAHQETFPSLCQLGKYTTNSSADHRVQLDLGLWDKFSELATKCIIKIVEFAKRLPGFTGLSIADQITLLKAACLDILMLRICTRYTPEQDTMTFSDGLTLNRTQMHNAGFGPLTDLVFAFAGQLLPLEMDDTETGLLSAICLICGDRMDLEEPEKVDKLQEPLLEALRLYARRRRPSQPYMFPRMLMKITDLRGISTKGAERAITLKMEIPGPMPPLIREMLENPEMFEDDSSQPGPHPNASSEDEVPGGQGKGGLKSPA
Sequence (P19793 whole entry partner): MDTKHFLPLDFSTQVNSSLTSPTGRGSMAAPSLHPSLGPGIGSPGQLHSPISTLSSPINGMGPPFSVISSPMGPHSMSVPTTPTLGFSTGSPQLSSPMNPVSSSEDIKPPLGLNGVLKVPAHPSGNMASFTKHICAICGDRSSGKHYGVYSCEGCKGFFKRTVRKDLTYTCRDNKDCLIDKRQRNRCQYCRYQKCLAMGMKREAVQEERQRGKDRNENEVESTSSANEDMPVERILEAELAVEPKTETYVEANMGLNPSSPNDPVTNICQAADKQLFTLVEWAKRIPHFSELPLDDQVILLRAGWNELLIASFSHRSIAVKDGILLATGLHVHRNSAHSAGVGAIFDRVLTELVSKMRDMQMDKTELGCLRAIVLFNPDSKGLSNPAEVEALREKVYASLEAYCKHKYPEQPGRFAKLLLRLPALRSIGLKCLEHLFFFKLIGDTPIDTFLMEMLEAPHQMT
Assay: PGR assay (RAR-P-GR holoreceptor transactivation), RARγ
Format: cell-based
Conditions: efficiency relative to all-trans-retinoic acid, PGR assay
Exercise: for every item that follows, state its recorded % Efficiency RARγ.
One number for each entry, in %.

Give one value of % Efficiency RARγ per listed molecule.
1. CC(C)(C)c1ccc(C#Cc2ccc(C(=O)O)cn2)cc1Oc1ccc(C(F)(F)F)cc1
2. CC(C)(C)c1ccc(C(=O)Nc2ccc(C(=O)O)c(F)c2)cc1Oc1ccc(C(F)(F)F)cc1

Result:
1: 70; 2: 4

Give one value of % Efficiency RARγ per listed molecule.
1. COC(=O)c1ccc(Oc2cc(C#Cc3ccc(C(=O)O)c(F)c3)ccc2C(C)(C)C)cc1
2. CC(C)(C)c1ccc(C#Cc2ccc(C(=O)O)c(F)c2)cc1Oc1ccc([N+](=O)[O-])cc1

Result:
[0, 1]
